molecular target: PARP2 (Homo sapiens (Human)); test: PARP2 enzyme activity inhibition (chemiluminescence kit); assay type: biochemical
Sequence (Q9UGN5 whole entry): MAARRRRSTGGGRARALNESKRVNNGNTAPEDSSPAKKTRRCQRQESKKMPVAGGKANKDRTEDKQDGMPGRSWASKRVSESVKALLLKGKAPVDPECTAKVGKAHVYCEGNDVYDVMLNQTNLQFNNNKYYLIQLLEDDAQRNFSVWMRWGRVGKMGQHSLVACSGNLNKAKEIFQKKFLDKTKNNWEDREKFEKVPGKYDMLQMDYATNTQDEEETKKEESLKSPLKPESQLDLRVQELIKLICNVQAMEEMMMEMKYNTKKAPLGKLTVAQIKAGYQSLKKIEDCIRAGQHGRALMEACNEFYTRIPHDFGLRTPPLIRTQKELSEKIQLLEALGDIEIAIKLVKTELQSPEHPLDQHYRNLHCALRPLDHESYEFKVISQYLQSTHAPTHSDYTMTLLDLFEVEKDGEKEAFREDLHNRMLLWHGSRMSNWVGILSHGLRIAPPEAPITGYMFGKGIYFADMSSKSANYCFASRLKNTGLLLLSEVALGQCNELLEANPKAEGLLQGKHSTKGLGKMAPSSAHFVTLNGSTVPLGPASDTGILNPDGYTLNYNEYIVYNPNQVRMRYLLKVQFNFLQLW
property name: IC50 (nM)
State just the number; it will be interpreted in nM.

## Task Which measured IC50 value corresponds to CCc1cc2ncc(CN3CCN(c4ccc(C(=O)NC5CCN(c6ccc7c(c6)C(=O)N(C6CCC(=O)NC6=O)C7=O)CC5)nc4)CC3)cc2[nH]c1=O (stereo not shown) ?
## Result 41

###

test system: breast tumor cells MDA-MB-436; assay: MDA-MB-436 cell activity test (CellTiter-Glo, 7 days); type: cell-based, human; settings: Homo sapiens, MDA-MB-436, MDA-MB-436 cells, 10 μM; read-out: Max inh. % 10 μM
property name: inhibition at 10 µM (%)
Answer with a number only, understood to be in %.

## Task State the recorded inhibition at 10 µM for this entry: CCc1cc2ncc(CN3CCN(c4ccc(C(=O)N[C@H]5CC[C@@H](Nc6ccc7c(c6)C(=O)N(C6CCC(=O)NC6=O)C7=O)CC5)nc4)CC3)cc2[nH]c1=O (stereo partly drawn) [Compound 27]
## Result 95.8

## Task May I ask what inhibition at 10 µM has been recorded for CCc1cc2ncc(CN3CCN(c4ccc(C(=O)NC5CN(c6ccc7c(c6)C(=O)N(C6CCC(=O)NC6=O)C7=O)C5)nc4)CC3)cc2[nH]c1=O (stereo not drawn) [Compound 11] ?
## Result 99.8

## Task Which value of inhibition at 10 µM has been reported for CCc1cc2ncc(CN3CCN(c4ccc(C(=O)N[C@H]5C[C@H](Nc6ccc7c(c6)C(=O)N(C6CCC(=O)NC6=O)C7=O)C5)nc4)CC3)cc2[nH]c1=O (stereo partly drawn) [Compound 38] in the records?
## Result 77.1
